All figures here come from patent US20070117743A1.

Test system: DU-145
test name: SRB colorimetric assay of cell growth and viability, DU-145
Format: cell-based, human
protocol conditions: DU-145; 48 hours exposure
Where a SMILES comes first, the peptide text is derived from it. Bridges are numbered along the chain shown (N, C = ends). [ ]: non-standard residue; d: D form. The star is where a group is joined. d(aIle) = CC[C@H](C)[C@@H](N)C(=O)O; d(aThr) = C[C@@H](O)[C@@H](N)C(=O)O; Hexanoyl(5-Me) = CC(C)CCCC(=O)*; Orn = NCCC[C@H](N)C(=O)O; Dhb = C/C=C(\N)C(=O)O
readout label: TGI DU-145 (Molar)
Reply with just the number (in Molar).

Solved entries (count: 4):
C/C=C1\NC(=O)[C@H](Cc2ccccc2Cl)NC(=O)[C@@H](C(C)C)NC(=O)[C@@H]([C@@H](C)CC)NC(=O)[C@H](NC(=O)[C@H](NC(=O)[C@H](CCCN)NC(=O)[C@H]2CCCN2C(=O)[C@H](NC(=O)[C@@H](NC(=O)[C@@H](NC(=O)[C@H](NC(=O)CCCC(C)C)C(C)C)[C@@H](C)O)C(C)C)C(C)C)[C@@H](C)CC)[C@@H](C)OC(=O)[C@H](C(C)C)NC1=O [Compound 81, [Phe(2-Cl)^3]-KF] = 6.83E−07
C/C=C1\NC(=O)[C@H](Cc2ccc(F)c(F)c2)NC(=O)[C@@H](C(C)C)NC(=O)[C@@H]([C@@H](C)CC)NC(=O)[C@H](NC(=O)[C@H](NC(=O)[C@H](CCCN)NC(=O)[C@H]2CCCN2C(=O)[C@H](NC(=O)[C@@H](NC(=O)[C@@H](NC(=O)[C@H](NC(=O)CCCC(C)C)C(C)C)[C@@H](C)O)C(C)C)C(C)C)[C@@H](C)CC)[C@@H](C)OC(=O)[C@H](C(C)C)NC1=O [Compound 84, [Phe(3,4-F2)^3]-KF] = 2.54E−07
C/C=C1\NC(=O)[C@H](Cc2ccccc2)NC(=O)[C@@H](C(C)C)NC(=O)[C@@H]([C@@H](C)CC)NC(=O)[C@H](NC(=O)[C@H](NC(=O)[C@H](CCCN)NC(=O)[C@H]2CCCN2C(=O)[C@H](NC(=O)[C@@H](NC(=O)[C@@H](NC(=O)[C@@H](CCCN)NC(=O)CCCC(C)C)[C@@H](C)O)C(C)C)C(C)C)[C@@H](C)CC)[C@@H](C)OC(=O)[C@H](C(C)C)NC1=O [Compound 118, [D-Orn^13]-KF] = 3.84E−06
C/C=C1\NC(=O)[C@H](Cc2ccccc2)NC(=O)[C@@H](C(C)C)NC(=O)[C@@H]([C@@H](C)CC)NC(=O)[C@H](NC(=O)[C@H](NC(=O)[C@H](CCCN)NC(=O)[C@H]2CCCN2C(=O)[C@H](NC(=O)[C@@H](NC(=O)[C@H](CC(C)C)NC(=O)[C@H](NC(=O)CCCC(C)C)C(C)C)C(C)C)C(C)C)[C@@H](C)CC)[C@@H](C)OC(=O)[C@H](C(C)C)NC1=O [Compound 113, [Leu^12]-KF] ({Hexanoyl(5-Me)}-[dV]LV[dV][dP][Orn][d(aIle)][d(aThr)][d(aIle)][dV]F[Dhb]V; ester 8-C) = 2.14E−06

Now turn to the next molecule.
TGI DU-145 for C/C=C1\NC(=O)[C@H](Cc2ccccc2)NC(=O)[C@@H](C(C)C)NC(=O)[C@@H]([C@@H](C)CC)NC(=O)[C@H](NC(=O)[C@H](NC(=O)[C@H](CCCN)NC(=O)[C@H]2CCCN2C(=O)[C@H](NC(=O)[C@@H](NC(=O)CNC(=O)[C@H](NC(=O)CCCC(C)C)C(C)C)C(C)C)C(C)C)[C@@H](C)CC)[C@@H](C)OC(=O)[C@H](C(C)C)NC1=O [Compound 111, [Gly^12]-KF] ({Hexanoyl(5-Me)}-[dV]GV[dV][dP][Orn][d(aIle)][d(aThr)][d(aIle)][dV]F[Dhb]V; ester 8-C) ?
2.53E−06
